# IC50 listing for each entry below
assay: Cell growth assay, WST-8 (compounds B1-B126); format: cell-based; conditions: 96 h; T47D cell line, WST-8, 4 days; read-out: Cell growth inhibition in T47D cell line IC50

Past entries and their recorded results:
[
  {
    "Molecule": "C[C@@H]1Cc2c(ccc3[nH]ncc23)[C@@H](c2c(F)cc(NC3CC4(C3)CN(C(=O)CN3Cc5cc6c(cc5C3)C(=O)N(C3CCC(=O)NC3=O)C6=O)C4)cc2F)N1CC(F)F (stereo partly shown) [Compound B44]",
    "IC50": "< 1 nM"
  },
  {
    "Molecule": "C[C@@H]1Cc2c(ccc3[nH]ncc23)[C@@H](c2ccc(N3CCC4(CC3)CC(CN3CCN5c6ccc(C(=O)N(C)C7CCC(=O)NC7=O)nc6OC[C@H]5C3)C4)cn2)N1CC(F)(F)F (stereo partly shown) [Compound B92]",
    "IC50": "> 10 nM"
  },
  {
    "Molecule": "COc1c2c(cc3c1CN(C1CCC(=O)NC1=O)C3=O)CN(CC(=O)N1CCC3(CC1)CCN(c1cc(F)c([C@@H]4c5ccc6[nH]ncc6c5C[C@@H](C)N4CC(F)F)c(F)c1)CC3)C2 (stereo partly shown) [Compound B72]",
    "IC50": "1 to 10 nM"
  },
  {
    "Molecule": "C[C@@H]1Cc2c(ccc3[nH]ncc23)[C@@H](c2ccc(N3CCC4(CC3)CC(CN3CCN5c6cc7c(cc6OC[C@@H]5C3)C(=O)N(C3CCC(=O)NC3=O)C7)C4)cn2)N1CC(F)(F)F (stereo partly shown) [Compound B77]",
    "IC50": "1 to 10 nM"
  },
  {
    "Molecule": "C[C@@H]1Cc2c(ccc3[nH]ncc23)[C@@H](c2c(F)cc(N3CCC4(CCN(C(=O)CN5CCN6c7cc8c(cc7OC[C@@H]6C5)C(=O)N(C5CCC(=O)NC5=O)C8)CC4)C3)cc2F)N1CC(F)F (stereo partly shown) [Compound B23]",
    "IC50": "< 1 nM"
  },
  {
    "Molecule": "COc1cc(N2CCC3(CC2)OCC(CN2CCN4c5cc6c(cc5OC[C@H]4C2)C(=O)N(C2CCC(=O)NC2=O)C6)CO3)ccc1[C@@H]1c2ccc3[nH]ncc3c2C[C@@H](C)N1CC(F)F (stereo partly shown) [Compound B115]",
    "IC50": "< 1 nM"
  }
]

### Prompt Record request: IC50 value, item C[C@@H]1Cc2c(ccc3[nH]ncc23)[C@@H](c2c(F)cc(NC3CC4(C3)CN(CC(=O)N3Cc5cc6c(cc5C3)C(=O)N(C3CCC(=O)NC3=O)C6=O)C4)cc2F)N1CC(F)F (stereo partly shown) [Compound B45]
### Response 1 to 10 nM

### Prompt Look up IC50 for this molecule: COc1cc(N2CCC3(CC2)CC(CN2CCN4c5ccc6c(c5OC[C@H]4C2)CN(C2CCC(=O)NC2=O)C6=O)CO3)ccc1[C@@H]1c2ccc3[nH]ncc3c2C[C@@H](C)N1CC(F)F (stereo partly shown) [Compound B80]
### Response < 1 nM

### Prompt Could you share which IC50 value was measured for C[C@@H]1Cc2c(ccc3[nH]ncc23)[C@@H](c2ccc(N3CCC4(CCN(C(=O)CN5Cc6cc7c(cc6C5)C(=O)N(C5CCC(=O)NC5=O)C7)CC4)CC3)cn2)N1CC(F)(F)F (stereo partly shown) [Compound B74] ?
### Response 1 to 10 nM

### Prompt Name the reported IC50 value associated with the molecule C[C@@H]1Cc2c(ccc3[nH]ncc23)[C@@H](c2c(F)cc(N3CCC4(CN(C(=O)CN5CCN6c7cc8c(cc7OC[C@@H]6C5)C(=O)N(C5CCC(=O)NC5=O)C8)C4)C3)cc2F)N1CC(F)F (stereo partly shown) [Compound B37]
### Response < 1 nM

---

assay: Cell growth assay, WST-8 (compounds B1-B126); assay type: cell-based; settings: 96 h; T47D cell line, WST-8, 4 days; read-out: Cell growth inhibition in T47D cell line IC50
Property: IC50

Observe how each entry below is paired with its result.
[
  {
    "Compound": "C[C@@H]1Cc2c(ccc3[nH]ncc23)[C@@H](c2ccc(N3CCC4(CC3)CC(CN3CCN5c6c(ccc7c6CN(C6CCC(=O)NC6=O)C7=O)OC[C@@H]5C3)C4)cn2)N1CC(F)(F)F (stereo partly shown)",
    "Property": "IC50",
    "Result": "1 to 10 nM"
  },
  {
    "Compound": "C[C@@H]1Cc2c(ccc3[nH]ncc23)[C@@H](c2c(F)cc(N3CCC(CN4CCN5c6cc7c(cc6OC[C@@H]5C4)C(=O)N(C4CCC(=O)NC4=O)C7)CC3)cc2F)N1CC(F)F (stereo partly shown)",
    "Property": "IC50",
    "Result": "< 1 nM"
  },
  {
    "Compound": "C[C@@H]1Cc2c(ccc3[nH]ncc23)[C@@H](c2ccc(N3CCC4(CCN(C(=O)CN5Cc6cc7c(cc6C5)C(=O)N(C5CCC(=O)NC5=O)C7=O)CC4)CC3)cn2)N1CC(F)F (stereo partly shown)",
    "Property": "IC50",
    "Result": "> 10 nM"
  },
  {
    "Compound": "C[C@@H]1Cc2c(ccc3[nH]ncc23)[C@@H](c2c(F)cc(N3CCN(C(=O)CN4CCN5c6cc7c(cc6OC[C@@H]5C4)C(=O)N(C4CCC(=O)NC4=O)C7)CC3)cc2F)N1CC(F)F (stereo partly shown)",
    "Property": "IC50",
    "Result": "< 1 nM"
  },
  {
    "Compound": "COc1c2c(cc3c1CN(C1CCC(=O)NC1=O)C3=O)CN(CC(=O)N1CC3(CCN(c4cc(F)c([C@@H]5c6ccc7[nH]ncc7c6C[C@@H](C)N5CC(F)F)c(F)c4)CC3)C1)C2 (stereo partly shown)",
    "Property": "IC50",
    "Result": "< 1 nM"
  }
]

### Prompt What measured IC50 goes with C[C@@H]1Cc2c(ccc3[nH]ncc23)[C@@H](c2c(F)cc(NC3CN(C(=O)[C@H]4CC[C@@H](N5Cc6cc7c(cc6C5)C(=O)N(C5CCC(=O)NC5=O)C7=O)CC4)C3)cc2F)N1CC(F)F (stereo partly shown) ?
### Response 1 to 10 nM

### Prompt Entry C[C@@H]1Cc2c(ccc3[nH]ncc23)[C@@H](c2c(F)cc(NC3CN(CC(=O)N4CCN5c6cc7c(cc6OC[C@@H]5C4)C(=O)N(C4CCC(=O)NC4=O)C7)C3)cc2F)N1CC(F)F (stereo partly shown) : reported IC50 = ?
### Response < 1 nM

### Prompt Can you share its IC50? I mean this compound: C[C@@H]1Cc2c(ccc3[nH]ncc23)[C@@H](c2c(F)cc(N3CCC4(CC3)CN(C(=O)CN3CCN5c6cc7c(cc6OC[C@@H]5C3)C(=O)N(C3CCC(=O)NC3=O)C7)C4)cc2F)N1CC(F)F (stereo partly shown)
### Response < 1 nM

### Prompt What measured IC50 goes with C[C@@H]1Cc2c(ccc3[nH]ncc23)[C@@H](c2c(F)cc(NC3CC4(C3)CN(CC(=O)N3CCN5c6cc7c(cc6OC[C@@H]5C3)C(=O)N(C3CCC(=O)NC3=O)C7)C4)cc2F)N1CC(F)F (stereo partly shown) ?
### Response < 1 nM

### Prompt For the compound shown here, C[C@@H]1Cc2c(ccc3[nH]ncc23)[C@@H](c2ccc(N3CCC4(CC3)CC(CN3CCN5c6ccc7c(c6OC[C@@H]5C3)CN(C3CCC(=O)NC3=O)C7=O)C4)cn2)N1CC(F)(F)F (stereo partly shown) , give the reported IC50.
### Response < 1 nM

---

Target: ER (Homo sapiens, UniProt P03372)
Construct: endogenous in cells; probably T47D or MCF-7
Sequence (P03372 1-595): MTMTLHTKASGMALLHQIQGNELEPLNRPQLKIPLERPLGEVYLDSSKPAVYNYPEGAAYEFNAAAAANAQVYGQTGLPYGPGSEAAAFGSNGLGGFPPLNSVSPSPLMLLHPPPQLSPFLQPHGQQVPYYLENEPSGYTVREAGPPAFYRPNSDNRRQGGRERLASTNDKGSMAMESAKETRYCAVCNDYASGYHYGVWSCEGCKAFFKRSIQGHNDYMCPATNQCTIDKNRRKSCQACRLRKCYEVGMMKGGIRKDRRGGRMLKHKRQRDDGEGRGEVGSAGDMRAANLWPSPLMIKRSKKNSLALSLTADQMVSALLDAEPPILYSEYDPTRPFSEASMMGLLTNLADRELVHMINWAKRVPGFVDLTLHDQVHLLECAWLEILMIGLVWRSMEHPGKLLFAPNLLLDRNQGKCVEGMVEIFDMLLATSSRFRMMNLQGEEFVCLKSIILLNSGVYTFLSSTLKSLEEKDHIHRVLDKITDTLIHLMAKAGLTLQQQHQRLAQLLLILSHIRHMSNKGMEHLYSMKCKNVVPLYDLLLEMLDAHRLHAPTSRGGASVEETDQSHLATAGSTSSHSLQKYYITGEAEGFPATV
Assay: In-cell western blot analysis, relative ER percentage (compounds B1-B126)
Assay type: cell-based
Details: ER degradation, 16 hours, read-out: ICW DC50
The entries below are paired with their reported DC50.

Example molecules with recorded DC50:
[
  {
    "Molecule": "C[C@@H]1Cc2c(ccc3[nH]ncc23)[C@@H](c2ccc(N3CCC4(CC3)CC(CN3CCN5c6c(ccc7c6CN(C6CCC(=O)NC6=O)C7=O)OC[C@@H]5C3)C4)cn2)N1CC(F)(F)F (stereo partly drawn)",
    "DC50": "> 100 nM"
  },
  {
    "Molecule": "C[C@@H]1Cc2c(ccc3[nH]ncc23)[C@@H](c2ccc(N3CCC4(CC3)CC(CN3CCC5(CC3)COc3c5ccc5c3CN(C3CCC(=O)NC3=O)C5=O)CO4)cn2)N1CC(F)(F)F (stereo partly drawn)",
    "DC50": "> 100 nM"
  }
]

Then this molecule:
### Prompt Which DC50 reading was recorded for the molecule COc1cc(N2CC3(CCC(CN4CCN5c6ccc7c(c6OC[C@H]5C4)CN(C4CCC(=O)NC4=O)C7=O)CC3)C2)ccc1[C@@H]1c2ccc3[nH]ncc3c2C[C@@H](C)N1CC(F)F (stereo partly drawn) ?
### Response > 100 nM
